# System: HIV-1/184-Ile
# test: inhibition of syncytium formation in CEM cells, HIV-1 RT mutant 184-Ile
# Type: cell-based
# cond: Human immunodeficiency virus 1, CCRF-CEM, 96 h, read-out: EC50 184-IIe
# Text: CEM cells were obtained from the American Tissue Cell Culture Collection (Rockville, Md.) . HIV-1 (IIIB) was originally obtained from the culture supernatant of persistently HIV-1-infected H9 cells and was provided by R. C. Gallo and M. Popovic (National Cancer Institute, National Institutes of Health, Bethesda, Md.). […]
parameter: EC50 (µg/mL)
Express the result in µg/mL but write the number alone.

# return EC50 for Cc1occc1C(=S)Nc1ccc(Cl)c(COc2c(F)ccc(F)c2F)c1 , test system: HIV-1/184-Ile
0.005

For HIV-1/184-Ile, give the measured EC50 of the entry CC(=O)OCc1ccccc1OCc1cc(NC(=S)c2ccoc2C)ccc1Cl
1.2

Enter recorded EC50 with HIV-1/184-Ile for Cc1occc1C(=S)Nc1ccc(Cl)c(COc2cccc(Cl)c2)c1 here.
0.4

###

Hi there, I'd appreciate the recorded EC50 for every entry that follows.
# Test system: HIV-1/188-Leu
# test: inhibition of syncytium formation in CEM cells, HIV-1 RT mutant 188-Leu
# Format: cell-based
# cond: Human immunodeficiency virus 1, CCRF-CEM, 96 h, read-out: EC50 188-Leu
Expressed in µg/mL, but write only the number.

// fetch EC50 given entry Cc1occc1C(=S)Nc1ccc(Cl)c(COc2ccccc2Br)c1
0.7

Please indicate EC50 recorded for Cc1occc1C(=S)Nc1ccc(Cl)c(COc2ccccc2C(F)(F)F)c1
0.19

###

# Test system: HIV-1/184-Ile
# test: inhibition of syncytium formation in CEM cells, HIV-1 RT mutant 184-Ile
# Format: cell-based
# cond: Human immunodeficiency virus 1, CCRF-CEM, 96 h, read-out: EC50 184-IIe
Consider the following compounds; for each one, report its EC50.
Field: numeric (µg/mL). Do not append units.

Input COc1ccccc1OCc1cc(NC(=S)c2ccoc2C)ccc1Cl , output reported EC50.
0.025

Provide one value: measured EC50 of Cc1occc1C(=S)Nc1ccc(Cl)c(COc2ccc(F)cc2)c1
0.16

Complete the entry with EC50 for Cc1occc1C(=S)Nc1ccc(Cl)c(COc2cccc([N+](=O)[O-])c2)c1
0.11

Return reported EC50. Input compound: Cc1occc1C(=S)Nc1ccc(Cl)c(COc2ccccc2C#N)c1
0.03

Annotate the compound Cc1occc1C(=S)Nc1ccc(Cl)c(COc2ccccc2CO)c1 with its measured EC50.
1

Could you please provide reported EC50 for Cc1occc1C(=S)Nc1ccc(Cl)c(COc2ccccc2F)c1 ? Thanks!
0.032

Give the reported value of EC50 for this record: Cc1ccc(Cl)c(OCc2cc(NC(=S)c3ccoc3C)ccc2Cl)c1
0.14

Read the entry Cc1occc1C(=S)Nc1ccc(Cl)c(COc2ccccc2C(F)(F)F)c1 and write its reported EC50.
0.018

Give EC50 for the following compound: CCCc1ccccc1OCc1cc(NC(=S)c2ccoc2C)ccc1Cl
0.13

###

# Tested on: HIV-1/188-His
# test: inhibition of syncytium formation in CEM cells, HIV-1 RT mutant 188-His
# Type: cell-based
# cond: Human immunodeficiency virus 1, CCRF-CEM, 96 h, read-out: EC50 188-His
Heads up, the class ranges for EC50 are bin 0: < 0.3 µg/mL; bin 1: ≥ 0.3 µg/mL and < 0.5 µg/mL; bin 2: ≥ 0.5 µg/mL

Hey, which category is Cc1occc1C(=S)Nc1ccc(Cl)c(COc2c(F)ccc(F)c2F)c1 [Compound 45] in, do you know?
bin 2

Which bin should I file Cc1occc1C(=S)Nc1ccc(Cl)c(COc2cccc(C(F)(F)F)c2)c1 [Compound 5] under?
bin 2

Where would COc1ccccc1OCc1cc(NC(=S)c2ccoc2C)ccc1Cl [Compound 22] land among the classes by reported EC50?
bin 2

Band for Cc1occc1C(=S)Nc1ccc(Cl)c(COc2c(F)cccc2F)c1 [Compound 16] ?
bin 2

Kindly identify the class of Cc1ccc(Cl)c(OCc2cc(NC(=S)c3ccoc3C)ccc2Cl)c1 [Compound 37] .
bin 1

Which bin should I file Cc1occc1C(=S)Nc1ccc(Cl)c(COc2ccccc2[N+](=O)[O-])c1 [Compound 19] under?
bin 0

# bin label for CCc1ccccc1OCc1cc(NC(=S)c2ccoc2C)ccc1Cl [Compound 44]
bin 0

Category lookup for the compound Cc1occc1C(=S)Nc1ccc(Cl)c(COc2ccccc2Br)c1 [Compound 40]
bin 1

For CCCc1ccccc1OCc1cc(NC(=S)c2ccoc2C)ccc1Cl [Compound 43] , which EC50 bin applies?
bin 2

Sort Cc1occc1C(=S)Nc1ccc(Cl)c(COc2ccccc2C#N)c1 [Compound 30] into one of the categories.
bin 1

###

# Test system: HIV-1 (IIIB)
# test: inhibition of HIV-1(IIIB) (WT) induced syncytium formation in CEM cells
# Assay type: cell-based
# cond: Human immunodeficiency virus 1, IIIB, CCRF-CEM, 96 h, Table 2, day 4 post infection, replicate values, read-out: EC50, Activity Against HIV-1 (IIIB)
Would you mind telling me the reported EC50 of each entry?
// units = nM; emit number, no label

Quote EC50 reported for Cc1occc1C(=S)Nc1ccc(Cl)c(CSc2ccncc2)c1 [Compound 83] please.
16500

Give the reported EC50 for this compound. Cc1ccccc1OCc1cc(NC(=S)c2ccoc2C)ccc1Cl [Compound 8]
107

Give EC50 for Cc1occc1C(=O)Nc1ccc(Cl)c(COc2c(F)cccc2F)c1 [Compound 20]
496

Give the reported EC50 for this compound. Cc1occc1C(=S)Nc1ccc(Cl)c(COc2ccccc2F)c1 [Compound 18]
117

# return recorded EC50 for entry COc1ccccc1OCc1cc(NC(=S)c2ccoc2C)ccc1Cl [Compound 22]
160

Read off the recorded EC50 for CC(=NN(C)C)c1ccccc1OCc1cc(NC(=O)c2ccoc2C)ccc1Cl [Compound 56]
2230

Using the record for Cc1occc1C(=S)Nc1ccc(Cl)c(OCc2sccc2Br)c1 [Compound 76] , state its measured EC50.
86.1

Note EC50 for the compound shown: Cc1occc1C(=O)Nc1ccc(Cl)c(COc2cccc([N+](=O)[O-])c2)c1 [Compound 26]
4610

Provide only the value of recorded EC50 for Cc1occc1C(=O)Nc1ccc(Cl)c(COc2c(F)c(F)cc(F)c2F)c1 [Compound 58]
475

###

# System: HIV-1/101-Glu
# test: inhibition of syncytium formation in CEM cells, HIV-1 RT mutant 101-Glu
# Format: cell-based
# cond: Human immunodeficiency virus 1, CCRF-CEM, 96 h, read-out: EC50 101-Glu
Give measured EC50 for each item. Keep answers brief.
Record the value in µg/mL, omitting the unit from your answer.

Provide EC50 value for the following compound: Cc1occc1C(=S)Nc1ccc(Cl)c(COc2ccccc2Cl)c1
0.11

Read the entry Cc1occc1C(=S)Nc1ccc(Cl)c(COc2cccc(Cl)c2)c1 and write its reported EC50.
2

// fetch EC50 given entry Cc1occc1C(=S)Nc1ccc(Cl)c(COc2ccccc2F)c1
0.24

Supply measured EC50 of Cc1occc1C(=S)Nc1ccc(Cl)c(COc2c(F)cccc2F)c1 in your reply.
0.069

Quick one: give measured EC50 for Cc1ccccc1OCc1cc(NC(=S)c2ccoc2C)ccc1Cl
1.5

State its EC50: Cc1occc1C(=S)Nc1ccc(Cl)c(COc2ccc(F)cc2Cl)c1
1.47

Retrieve EC50 measured for Cc1occc1C(=S)Nc1ccc(Cl)c(COc2ccccc2Br)c1 and print it.
0.4

Please supply the value of reported EC50 for the item Cc1occc1C(=S)Nc1ccc(Cl)c(COc2ccccc2C(F)(F)F)c1
0.18

Please report the measured EC50 for COc1cccc(F)c1OCc1cc(NC(=S)c2ccoc2C)ccc1Cl
0.12

Identify measured EC50 associated with COc1ccccc1OCc1cc(NC(=S)c2ccoc2C)ccc1Cl
0.75

Specify reported EC50 for the compound shown: CCCc1ccccc1OCc1cc(NC(=S)c2ccoc2C)ccc1Cl
1.35

Quote EC50 reported for Cc1ccc(Cl)c(OCc2cc(NC(=S)c3ccoc3C)ccc2Cl)c1 please.
1.4

Fill in EC50 for record CCc1ccccc1OCc1cc(NC(=S)c2ccoc2C)ccc1Cl
0.65

Hello, please tell me recorded EC50 for this one: Cc1occc1C(=S)Nc1ccc(Cl)c(COc2cccc([N+](=O)[O-])c2)c1
0.55

Determine from records and report EC50 for Cc1occc1C(=S)Nc1ccc(Cl)c(COc2ccccc2C#N)c1
0.63

For the compound Cc1occc1C(=S)Nc1ccc(Cl)c(COc2ccccc2[N+](=O)[O-])c1 , report EC50.
0.17

Hello, please tell me recorded EC50 for this one: Cc1occc1C(=S)Nc1ccc(Cl)c(COc2c(F)ccc(F)c2F)c1
0.04

###

Kindly supply the reported EC50 values for the records listed here.
# System: HIV-1/188-Leu
# test: inhibition of syncytium formation in CEM cells, HIV-1 RT mutant 188-Leu
# Format: cell-based
# cond: Human immunodeficiency virus 1, CCRF-CEM, 96 h, read-out: EC50 188-Leu
Give the number; µg/mL is assumed, so skip it.

Return the recorded EC50 value; entry: Cc1ccc(Cl)c(OCc2cc(NC(=S)c3ccoc3C)ccc2Cl)c1
0.62

Using the record for Cc1occc1C(=S)Nc1ccc(Cl)c(COc2c(F)cccc2F)c1 , state its measured EC50.
0.95

Assign EC50 to the following record: Cc1occc1C(=S)Nc1ccc(Cl)c(COc2ccccc2C#N)c1
0.85

Where do these numbers come from? They come from patent US6143780A.
